In this section, each of the compounds is paired with its reported growth inhibition.
assay: NCI Yeast Anticancer Drug Screen. Data for the mgt1 strain (AID 153); settings: S. cerevisiae mgt1 mutant growth inhibition; at 1.2 µM; active compounds read high
The panel holds about 79,000 compounds, 15% with a hit somewhere; the sample as a whole holds those more often.

# compound, growth inhibition (%)
data = [
    ("CCCCCCC1OCC(O)C(OCCCC)O1 (stereo not drawn)", -6),
    ("NC(=S)N1N=C2c3ccccc3CC[C@H]2[C@@H]1c1ccc(Cl)cc1", 7),
    ("Nc1ccc2c(c1)C(=O)c1c(F)cccc1-2", -1),
    ("O=C(O)c1ccccc1C(=O)OC1CCc2ccccc2C1 (stereo not drawn)", -4),
    ("COC(=O)C1=C(C(=O)OC)CC(n2nnc(C(=O)OC)c2C(=O)OC)=CC1", -1),
    ("COc1ccc2nc3cccc([N+](=O)[O-])c3c(NCCNCCO)c2c1", -2),
    ("NCCOc1ccc(/C(=C(/Cl)c2ccccc2)c2ccccc2)cc1", -6),
    ("O=P(C(=S)Nc1c(Cl)cccc1Cl)(c1ccccc1)c1ccccc1", 11),
    ("CC(C)OC(=O)NNc1cccc(Cl)c1", 0),
    ("Cc1ccc(S(=O)(=O)Nc2cccc3cccnc23)cc1", 14),
    ("CCCCCc1c(CCCC)c(=O)[nH]c2cc(CNCC(OC)OC)ccc12", -15),
    ("c1c[nH]c(CN2CCN(Cc3ncc[nH]3)CC2)n1", -6),
    ("c1ccc2c(c1)ccn2CCc1c[nH]c2ccccc12", -26),
    ("Brc1ccc(B2Nc3ccccc3N2)cc1", -5),
    ("O=C1/C(=C/c2ccc(Cl)c(Cl)c2)CNC/C1=C\\c1ccc(Cl)c(Cl)c1", 5),
    ("O=c1cccccc1[O-].O=c1cccccc1[O-].O=c1cccccc1[O-].[Eu+3]", 13),
    ("O=C1C[C@H]2[C@H](c3ccc(Br)cc3)[C@H]3C(=O)c4ccccc4NC(=O)[C@@H]3[C@@]2(O)c2ccccc2N1", 5),
    ("O=C(NNc1ccccc1)C(CCCCNS(=O)(=O)Cc1ccccc1)NS(=O)(=O)Cc1ccccc1 (stereo not drawn)", 0),
    ("Cc1ccc(NC(=O)CCC(=O)C(C)C(=O)c2ccccc2)c(C)c1 (stereo not drawn)", 0),
    ("O=C(O)C1CCCCC1c1c2ccc(=O)cc-2oc2cc(O)ccc12 (stereo not drawn)", 15),
    ("O=C1C2=C(c3ccccc31)C(c1ccccc1)N1C(=O)CSC1=N2 (stereo not drawn)", -2),
    ("CCOC(=O)/C(=C\\c1ccc(F)cc1)C(C)=O", -19),
    ("CCC(C)(C)c1ccc(Oc2ccccc2)c(N)c1", -16),
]

====

Parameter: growth inhibition. Scope: all listed entries.
assay: NCI Yeast Anticancer Drug Screen. Data for the bub3 strain (AID 167); conditions: S. cerevisiae bub3 mutant strain, at 5.0 µM (retest, dose inferred, filed as 0.5), active compounds read high
This is part of a sample that, as a whole, favours compounds with a hit. Of some 79,000 tested, about 15% had one in any assay.

# compound, growth inhibition [%]
rows = [
    ("CC(C)OC(=O)NNc1cccc(Cl)c1", 83),
    ("COc1ccc(N=c2cc(-c3ccccc3)oc3ccccc23)cc1", -1),
    ("CC(C)C(=O)CC(Sc1ccc(N)cc1)c1ccccc1 (centres undefined)", 89),
    ("Cc1cccc(/C=N/NC(=S)NC2CCCCC2)n1", -30),
    ("O=CC1(F)CC1(c1ccccc1)c1ccccc1 (centres undefined)", -3),
    ("COc1cc([C@@H]2c3cc4c(cc3[C@@H](NC(=O)NO)[C@H]3COC(=O)[C@H]23)OCO4)cc(OC)c1O", 3),
    ("Nc1cc2ccccc2cc1N", 25),
    ("CC(C)=CCC/C(C)=C/CN1C(=O)C=CC1=O", -24),
    ("CCN1CCC(O)(c2ccc(Oc3ccc(Cl)cc3)cc2)C(C(=O)c2ccc(Oc3ccc(Cl)cc3)cc2)C1 (centres undefined)", 87),
    ("C[C@H](CCC1=NC(C)(C)CO1)C1CCC2[C@@H]3C(O)C[C@@H]4CC(O)CC[C@]4(C)C3CC[C@@]21C (some centres undefined)", 0),
    ("NCCCSc1ccccc1", 8),
    ("N#CSCC1COc2ccccc2O1 (centres undefined)", 8),
    ("CCCCCCCN(CCCCCCC)CC(=O)c1ccc2cc(Cl)c3ccccc3c2c1", 26),
    ("Cc1cccc2c(NCCCN(C)C)c3c([N+](=O)[O-])ccc(C)c3nc12", -24),
    ("COc1ccc2nc3cccc([N+](=O)[O-])c3c(NCCNCCN(C)C)c2c1", -33),
    ("COC(=O)C(=O)c1c(-c2ccc(Cl)c(Cl)c2)[nH]c2[nH]n(-c3ccccc3)c(=O)c2c1=O", -38),
    ("BrC1C2CCC3OC3C12 (centres undefined)", 2),
    ("Cc1c(Cl)c(C)c(Cl)c(O)c1Cl", 27),
    ("N#Cc1nc(Nc2ccc(Cl)cc2)sc1N", 10),
]

====

Test: NCI Yeast Anticancer Drug Screen. Data for the mec2-1 strain (AID 157)
Conditions: S. cerevisiae mec2-1 strain, at 1.2 µM, active compounds read high
Method: Growth inhibition of yeast strains with defined genetic alterations is measured as a screen for potential anti-cancer activity. Selected strains with alterations in DNA damage repair or cell cycle control were exposed to compounds and growth inhibition was measured relative to vehicle treated controls. The strain used in this assay is mec2-1
The panel holds about 79,000 compounds, 15% with a hit somewhere; the sample as a whole holds those more often.
The following compounds are listed with their measured growth inhibition values.

# compound, display_unit, growth inhibition
data = [
    ("c1ccc2c(c1)N=C1CCCC3CCCC123 (stereo not drawn)", "%", -2),
    ("CCC(=O)C1=C(O)c2cc(OC)ccc2CC1C(=O)OC (stereo not drawn)", "%", -1),
    ("CCc1c(Cl)c(C)c(Cl)c(O)c1Cl", "%", -28),
    ("Cc1cc(C)c(S(=O)(=O)c2ccc(Cl)cc2)c(C)c1", "%", -5),
    ("Cc1cc(Cl)ccc1NC(=O)/C(Cl)=C(/Cl)C(=O)O", "%", 3),
    ("O=C1C=CC(=Nc2cccc3c2-c2ccccc2C3=O)O1", "%", 6),
    ("O=CC1(F)CC1(c1ccccc1)c1ccccc1 (stereo not drawn)", "%", -3),
    ("CNC(=S)N/N=C(/C)CCC/C(C)=N/NC(=S)NC", "%", 27),
    ("C/C(=N\\Sc1ccccc1)c1ccccc1O", "%", -1),
    ("Cc1ccc(Nc2n[nH]c(=S)s2)c(C)c1", "%", -44),
    ("C/C(=N/NC(=S)Nc1ccccc1C)c1ccccn1", "%", -3),
    ("CCCCCCCCCCCCCCCCCCNc1nc(=O)n(C2CC(OP(=O)(O)OCC3OC(n4cc(F)c(=O)[nH]c4=O)CC3O)C(CO)O2)cc1F (stereo not drawn)", "%", 9),
    ("Cc1ccc(C)c(C(=N)c2ccccc2Cc2ccccc2)c1", "%", 2),
    ("CC1CCN(CCC(=O)c2ccc([N+](=O)[O-])cc2)CC1", "%", -1),
    ("CCOC(=O)/C(=C/c1cccc(Cl)c1)N(CC)CC", "%", 6),
    ("CC(C)(C)c1ccc2c(c1)C(=O)c1ccccc1C2=O", "%", -6),
    ("CCC(C)(C)c1ccc(Oc2ccccc2)c(N)c1", "%", -40),
    ("CCCCN(CCCC)c1ccc(N=Nc2ccc(S(=O)(=O)O)cc2)cc1", "%", 32),
    ("CC1=CC(=O)C=CC1=Nc1cc(Cl)c(O)c(Cl)c1", "%", -21),
    ("COc1ccccc1NC(=O)c1ccc(Cl)cc1", "%", -5),
    ("CC(C)(CN1CCCCC1)C(=O)/C=C/c1c(Cl)cccc1Cl", "%", 16),
    ("COc1ccc(N=c2cc(-c3ccccc3)oc3ccccc23)cc1", "%", -3),
    ("Cc1oc2ccccc2c(=O)c1Cn1nnc2ccccc21", "%", -2),
    ("ClCCCOc1c(Cl)cc(Cl)cc1Cl", "%", -2),
    ("O=C1C(=O)c2cccc([N+](=O)[O-])c2-c2ccccc21", "%", 5),
    ("CCCCCCC1OCC(O)C(OCCCC)O1 (stereo not drawn)", "%", -2),
    ("CN(C)CC1=Nc2cccc3cccc(c23)N1", "%", -3),
    ("CCC(=O)Nc1ccc(N=NN(C)C)cc1", "%", -5),
]

====

test: NCI Yeast Anticancer Drug Screen. Data for the rad14 strain (AID 159);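 also: 0% = growth of vehicle-treated control cultures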; details: S. cerevisiae rad14 strain growth inhibition; at 33.0 µM
About 79,000 compounds went through this panel and 15% of them were active in at least one assay; those are over-represented in the sample as a whole. Calls of active or inactive are those of the source. Cut-off read from the data, not from the text of the source: active = growth inhibition above about 70%; inactive = the rest.
Possible outcomes: active, inactive

# compound, category
data = [
    ("O=[N+]([O-])c1ccc2[nH]c3c(-c4ccccc4)nccc3c2c1", "active"),
    ("COc1ccccc1NC(=O)c1ccc(Cl)cc1", "inactive"),
    ("Nc1cccc(-c2cc[cH-]c2)c1.[Fe+2].c1cc[cH-]c1", "inactive"),
    ("S=C1N(c2ccc(Cl)cc2)C2=C(N=Nc3ccccc3)C(=Nc3ccccc3S2)N1c1ccccn1", "active"),
    ("NCCCSc1ccccc1", "inactive"),
    ("CN(N=O)C(=O)Nc1ccc(C(=O)O)cc1", "inactive"),
    ("[N-]=[N+]=NC1(c2ccccc2)C(=O)Nc2ccccc2C1=O (configuration not stated)", "inactive"),
]
